# MEASUREMENT TARGET: T1, recombinant C-terminally His-tagged human CD47 (extracellular domain) (human, UniProt Q08722 19-141)
# T1 construct: also called recombinantly expressed human CD47 extracellular domain
# T1 sequence (Q08722 19-141): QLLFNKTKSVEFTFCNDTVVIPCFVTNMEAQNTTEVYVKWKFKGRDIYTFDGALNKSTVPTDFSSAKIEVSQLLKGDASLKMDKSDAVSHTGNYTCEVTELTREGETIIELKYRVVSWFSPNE
# ASSAY PROTOCOL: SPR, Biacore X100; antibody captured by anti-human Fc on a CM5 chip, CD47 extracellular domain as analyte, 1:1 fit

[
  {
    "BINDER": "2D6-016 (antibody, IgG4, V domains shown, hIgG4 (humanized IgG4); only the variable domains are tied to the construct; also called VH4/VL4) VH: QVQLVESGGGLVQPGGSLRLSCAASGYTFPSYDINWVRQAPGKGLEWVGWIYPRDGSPKYNEKFKGRFTISADTSKNTAYLQMNSLRAEDTAVYYCARSVYYGTQFAYWGQGTLVTVSS VL: DIVMTQSPSSLSASVGDRVTITCKSSQSLLNSRTRKNYLAWYQQKPGKAPKLLIYWASTRDSGVPDRFSGSGSGTDFTLTISSLQPEDFATYYCKQSFNLVTFGQGTKVEIK",
    "koff": "0.36 s⁻¹"
  }
]
